B1: library; a variant is named by its letters at N, in order (parent)
chain: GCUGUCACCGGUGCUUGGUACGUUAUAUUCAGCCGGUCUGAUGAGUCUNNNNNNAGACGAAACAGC

Variants of: B1
Assay: normalized RNA/DNA level without ligand (relative to sTRSVctl = 100) (log10 (% of sTRSVctl)); HEK293T overexpressing SLC46A1; higher = less ribozyme self-cleavage, higher mRNA level
Settings: without (6R,S)-folinic acid; ligand present: no
recorded_metric: normalized RNA/DNA level without ligand (log10)

- UAUAUG: 1.75
- CAGAUA: 1.96
- UGACCG: 1.98
- UAAAGG: 1.63
- AGCUGC: 2.04
- GUCUAG: 1.97
- CAUAUC: 2.08
- CAGCAC: 2.03
- AUAAUG: 1.91
- CCCUUU: 2.06
- GCACUU: 2
- ACGAAA: 1.96
- UUAGCC: 2.01
- GUUCCU: 2.03
- ACGUCC: 2.03
- AUAUAG: 1.91
- GCUUUG: 2
- CAGAGG: 1.9
- ACGAAG: 1.83
- GCUCUA: 2.01
- AGGUCU: 2.04
- AACAUC: 2.06
